// data source = patent US5602099A

assayed-system: δ opioid receptors (Mus musculus, UniProt P32300)
Construct: Bioassays Using Isolated Organ Preparations; from tissue; host or cells: mouse vas deferens (isolated organ)
Sequence (P32300 whole entry): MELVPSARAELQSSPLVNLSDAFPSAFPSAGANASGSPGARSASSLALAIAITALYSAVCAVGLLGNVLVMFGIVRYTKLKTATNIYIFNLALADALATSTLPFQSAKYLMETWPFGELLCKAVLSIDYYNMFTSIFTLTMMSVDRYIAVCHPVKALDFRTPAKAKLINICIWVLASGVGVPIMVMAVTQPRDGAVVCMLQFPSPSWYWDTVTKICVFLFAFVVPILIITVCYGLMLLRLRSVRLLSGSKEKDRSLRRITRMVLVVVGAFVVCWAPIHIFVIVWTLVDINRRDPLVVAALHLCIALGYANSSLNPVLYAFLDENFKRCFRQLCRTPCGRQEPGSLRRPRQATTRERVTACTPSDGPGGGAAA
experiment-description: Mouse vas deferens (MVD) bioassay, antagonism of electrically evoked contraction inhibition by δ-selective agonists
Type: tissue-based
details: Ke (nM) against [Leu5]Enkephalin, MVD assay; δ agonist [Leu5]enkephalin; means of 3-8 determinations
Peptide text beside a SMILES is read from it.
In this section we review reported Kb values for a set of molecules.

Known Kb results, listed for orientation:
INSERT INTO measurements (molecule, assayed_system, test_result) VALUES
  ('N[C@@H](Cc1ccc(O)c(Cl)c1)C(=O)N1Cc2ccccc2C[C@H]1C(=O)N[C@@H](Cc1ccccc1)C(=O)N[C@@H](Cc1ccccc1)C(=O)O [HTyr(3-Cl)TicPhePheOH, H-Tyr(3-Cl)-Tic-Phe-Phe-OH] (HELM PEPTIDE1{[N[C@@H](Cc1ccc(O)c(Cl)c1)C(=O)[*:2]].[Tic].F.F}$$$$V2.0)', 'δ opioid receptors (Mus musculus, UniProt P32300)', '18 nM'),
  ('NC(=O)[C@H](Cc1ccccc1)NC(=O)[C@H](Cc1ccccc1)NC(=O)[C@@H]1Cc2ccccc2CN1C(=O)[C@@H](N)Cc1ccc(O)cc1 [HTyrTicPhePheNH2, H-Tyr-Tic-Phe-Phe-NH2] (HELM PEPTIDE1{Y.[Tic].F.F.[am]}$$$$V2.0)', 'δ opioid receptors (Mus musculus, UniProt P32300)', '15.7 nM'),
  ('N[C@@H](Cc1ccc(O)cc1)C(=O)N1Cc2ccccc2C[C@H]1C(=O)N[C@@H](Cc1c[nH]cn1)C(=O)N[C@@H](Cc1ccccc1)C(=O)O [HTyrTicHisPheOH, H-Tyr-Tic-His-Phe-OH] (HELM PEPTIDE1{Y.[Tic].H.F}$$$$V2.0)', 'δ opioid receptors (Mus musculus, UniProt P32300)', '20.1 nM');

Record request: Kb value, item N[C@@H](Cc1ccc(O)cc1)C(=O)N1Cc2ccccc2C[C@H]1C(=O)NC1(C(=O)N[C@@H](Cc2ccccc2)C(=O)O)CCc2ccccc2C1 (stereo partly drawn) [HTyrTicAtcPheOH, H-Tyr-Tic-Atc-Phe-OH] (HELM PEPTIDE1{Y.[Tic].[O=C(C1(N[*:1])CCc2ccccc2C1)[*:2]].F}$$$$V2.0)
1.63 nM
